Test system: plasma esterases
Experiment: Inhibition of CDD hydrolysis in rat plasma by esterase inhibitors
Assay type: biochemical
Conditions: inhibitor 1 mM, CDD 1.5 μM, 37 °C, 5 s

{"compound": "O=C(O)c1cc(SSc2ccc([N+](=O)[O-])c(C(=O)O)c2)ccc1[N+](=O)[O-] [DTNB, 5,5′-dithiobis-2-nitrobenzoic acid]", "system.tested": "plasma esterases", "bound.operator": "<", "% inhibition of CDD hydrolysis (%)": 10}
{"compound": "Cl.NCCc1ccc(S(=O)(=O)F)cc1 [Pefabloc® SC]", "system.tested": "plasma esterases", "bound.operator": "=", "% inhibition of CDD hydrolysis (%)": 99.8}
{"compound": "Cc1ccc(S(=O)(=O)N[C@@H](CCCCN)C(=O)CCl)cc1.Cl [TLCK]", "system.tested": "plasma esterases", "bound.operator": "<", "% inhibition of CDD hydrolysis (%)": 10}
{"compound": "O=S(=O)(F)Cc1ccccc1 [PMSF, Phenylmethanesulfonyl fluoride]", "system.tested": "plasma esterases", "bound.operator": "=", "% inhibition of CDD hydrolysis (%)": 96.0}
{"compound": "CC(C)NP(=O)(NC(C)C)OP(=O)(NC(C)C)NC(C)C [Iso-OMPA, tetraisopropyl pyrophosphoramide]", "system.tested": "plasma esterases", "bound.operator": "=", "% inhibition of CDD hydrolysis (%)": 108.3}
{"compound": "O=[N+]([O-])c1ccc(OP(=O)(O)Oc2ccc([N+](=O)[O-])cc2)cc1 [BNPP, Bis(4-nitrophenyl) phosphate]", "system.tested": "plasma esterases", "bound.operator": "=", "% inhibition of CDD hydrolysis (%)": 97.0}
